- Tested on: CEM cells HIV-1 protection, formazan growth assay
- testSummary: NCI AIDS Antiviral Assay;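 active means compounds giving half or more protection of infected cells from virus-caused growth loss, again on retest; inactive means the rest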
Mark one answer only. Choices: class 1 for active, class 0 for inactive

In this assay, the call recorded for COCCn1cnc2c(Cl)nc(Nc3ccccc3)nc21 was what?
class 0

Given O=C(Nc1ccc(Cl)cc1)c1cc(S(=O)(=O)NC2=NC(c3ccccc3)c3cc(Cl)ccc3N2)c(SSc2cc(Cl)c(C(=O)Nc3ccc(Cl)cc3)cc2S(=O)(=O)NC2=NC(c3ccccc3)c3cc(Cl)ccc3N2)cc1Cl (stereo not given) , state the outcome it received in this test.
class 0

# lookup: test call for CC(C)(C)[Si](C)(C)OCC1OC(n2ccc(=O)[nH]c2=O)C(O[Si](C)(C)C(C)(C)C)C12OC2C(=O)NO (stereo not given)
class 0

Test call for this compound, please: CCC(C)c1c(NC(=O)c2ccccc2)o[nH]c1=O (stereo not given)
class 0

# lookup: test call for CC(C)(C)c1ccc(O)c(C(c2ccc([N+](=O)[O-])cc2)c2cc(C(C)(C)C)ccc2O)c1
class 0

State the result this test recorded for CCn1c(=O)c(N=O)c(N)n(CCCO)c1=O .
class 0

Could you check what this test reported for COC(=O)/C(=C/c1ccc(OC)cc1)C(C(=O)O)=C1CCCC1 ?
class 0

Which outcome was assigned to O=C(CCCC[n+]1ccccc1)Sc1ccccc1C(=O)Nc1ccc(S(=O)(=O)c2ccc(NS(=O)(=O)Cc3ccccc3[N+](=O)[O-])cc2)cc1 in this test?
class 1

Dear all, I need the recorded test outcome for O=C1N[C@@H]([C@H](CCCCCO)OC(=O)c2ccccc2)CO1 , thank you.
class 0

For this compound, state the assay outcome: CCCCCCCCCO/N=C\c1c2c(O)c3c(O)c(C)c4c(c3c1O)C(=O)C(C)(O/C=C\C(OC)C(C)C(OC(C)=O)C(C)C(O)C(C)C(O)C(C)/C=C\C=C(\C)C(=O)N2)O4 (stereo not given)
class 0

Test call for this compound, please: CCc1nc2ccccn2n1
class 0

// return assay outcome for O=C(Nc1ccc(C2=NCCN2)cc1)c1ccc(C(=O)Nc2ccc(C3=NCCN3)cc2)c(Br)c1
class 1

Give the logged outcome of this assay for the following compound: CC1(C)OC1COc1c2occc2cc2ccc(=O)oc12 (stereo not given)
class 0

Please share the test call associated with Cn1c2ccccc2c2nc3ccccc3nc21 .
class 0

Recorded test outcome, item CN(C)CCC(=O)N1CCc2c([nH]c3ccccc23)C1c1cccnc1 (stereo not given)
class 0

What classification did O=C1c2scc(-c3ccccc3)c2-n2cccc21 end up with in this test?
class 0

Please state the recorded outcome for this compound: CCOC(=O)C(C)c1nc2c(Cl)c3ncccc3cc2[nH]c1=O (stereo not given)
class 0

Hey, what did the test say about O=C(Nc1ccc(Cl)cc1)c1cc(S(=O)(=O)N2CCNNC2=O)c(S)cc1Cl ?
class 1

For this compound, state the assay outcome: COc1ccc(C(=O)/C=C/c2ccc(OCCCOc3ccc(/C=C/C(=O)c4ccc(OC)cc4)cc3)cc2)cc1
class 0

Check the results log: what was the call for CN(C)c1ccc(C2=NC(=S)NC(c3cc(Cl)ccc3O)C2)cc1 (stereo not given) ?
class 0

Write down the call the test reported for this compound. Item: CCO/C=N/C1=C(C#N)C(c2ccc(Cl)cc2)c2c(-c3ccccc3)nn(-c3ccccc3)c2O1 (stereo not given)
class 0

Short answer needed: outcome of this test for COC(=O)/C(=N\O)C(C(=O)C=C(C)C)C(=O)C(=O)Nc1ccccc1C (stereo not given) ?
class 0

Fill in: this test's call for CC(=O)Nc1ccc(OCC(O)CO)cc1 (stereo not given) is ___
class 0

Name the outcome recorded for CS(=O)(=O)NC1C(=O)c2ccccc2OC1c1ccccc1 (stereo not given) in the assay.
class 0

Tell me the recorded outcome of this test for O=C(CCc1ccc(O)cc1)NCCc1ccc(O)cc1 .
class 1

What is the recorded call for this compound in the test? CCN(CC)CC1CCCCN1CC(=O)N1c2ccc(Br)cc2C(=O)Nc2cccnc21 (stereo not given)
class 0

Assay outcome for CCOc1ccc2nc(NC(=O)C(=O)C(C#N)CC(C)(C)C=O)sc2c1 (stereo not given) : what was it?
class 0

What classification did OC(=Nc1cc(C(O)=Nc2cc(C(O)=Nc3cc(C(O)=Nc4ccc(C5=NCCN5)cc4)cc(C4=NCCN4)c3)cc(C3=NCCN3)c2)cc(C2=NCCN2)c1)c1ccc(C(O)=Nc2cc(C(O)=Nc3cc(C(O)=Nc4cc(C(O)=Nc5ccc(C6=NCCN6)cc5)cc(C5=NCCN5)c4)cc(C4=NCCN4)c3)cc(C3=NCCN3)c2)cc1 end up with in this test?
class 1

For Clc1ccc2nc3c(c(-c4ccccc4)nn3-c3ccccc3)c(-c3ccccc3)c2c1 , which call appears in the assay record?
class 0

Field: outcome | Entry: CCCCCCCC(=O)OCC(C[As](=O)(O)O)OC(=O)CCCCCCC (stereo not given)
class 0

// param item: COc1cc(Nc2cnc3ccc(N)cc3n2)cc(OC)c1OC ; yields the recorded call
class 0

# outcome recorded in this test, key = O=C(NCCNCCCNC(=O)c1cc(-c2ccccc2)nc2ccccc12)c1cccc(OCc2ccccc2)c1OCc1ccccc1
class 0

Called result for O=C(/C=C/c1ccc(O)c(O)c1)OCC(OC(=O)/C=C/c1ccc(O)c(O)c1)C(=O)O (stereo not given)
class 0

Field: outcome | Entry: Cc1ccc(NC(=O)CSc2nc(C)nc3c2sc(=S)n3-c2ccccc2)cc1
class 0

Which outcome was entered for the compound CCNCCCCNCCCCNCCCCNCCCCNCC in this test?
class 0

###

Would you kindly list IC50 for each of these compounds?
- Test system: CEM cells HIV-1 protection, formazan growth assay
- testSummary: NCI AIDS Antiviral Assay
- conditions: measured here: growth of uninfected CEM cells

Measured IC50 for this entry Cc1ccc(S(=O)(=O)O/N=C(/CC/C(=N\OS(=O)(=O)c2ccc(C)cc2)c2ccccc2)c2ccccc2)cc1 on CEM cells HIV-1 protection, formazan growth assay: > 437 µM

Result for O=C1c2ccccc2C(=O)c2c(SSc3cccc4c3C(=O)c3ccccc3C4=O)cccc21 , tested on CEM cells HIV-1 protection, formazan growth assay, IC50: > 200 µM

Record O=[N+]([O-])c1cccc(C2=NON(c3ncccn3)C3N=CC=CN23)c1 (stereo unspecified) has CEM cells HIV-1 protection, formazan growth assay IC50 equal to > 5.89 µM

Entry CCOC(=O)[C@@H]1[C@@H]2NC(=O)N[C@@]1(C)Oc1ccccc12 , tested on CEM cells HIV-1 protection, formazan growth assay, has a reported IC50 of > 200 µM

Bench note, CEM cells HIV-1 protection, formazan growth assay: CC1=CCP(C(F)(F)F)P(C(F)(F)F)C1 (stereo unspecified) , IC50 reads > 251 µM

Sample COc1cc(C(=O)n2c3ccc(Br)cc3c3nc4ccccc4nc32)cc(OC)c1OC , system: CEM cells HIV-1 protection, formazan growth assay. Its IC50 is > 50.1 µM

###

- System: CEM cells HIV-1 protection, formazan growth assay
- testSummary: NCI AIDS Antiviral Assay
- conditions: measured here: growth of uninfected CEM cells
Where a SMILES comes first, the peptide text is derived from it. [ ]: non-standard residue; d: D form. The star is where a group is joined. Tyr(3-Br) = N[C@@H](Cc1ccc(O)c(Br)c1)C(=O)O; Boc = CC(C)(C)OC(=O)*
Please respond with reported pIC50 for every item in the list.
Reminder that pIC50 is minus the log10 of a molar concentration.

pIC50 reported for this compound C[CH2][Sn]1([CH2]C)[O]C2C(O)OC(CO)C(O)C2[O]1 (stereo unspecified) : 5.50

Summary for this compound, COC(=O)[C@H](Cc1ccc(O)c(Br)c1)NC(=O)[C@H](Cc1ccc(O)cc1)NC(=O)OC(C)(C)C (Boc-Tyr-[Tyr(3-Br)]-OMe) : pIC50 is 4.46

Item: Cc1cccc2c(N)c3cccc(C(=O)NCCNCCN)c3nc12 | pIC50: 6.96

The reported value for CCCCNC(=O)CNC(=O)c1ccccc1SC(=O)CCCC[n+]1ccccc1 in terms of pIC50 is 5.03

get_value(item= COc1ccc(/C=C/c2cc(OC)c(OC)c(OC)c2)cc1O , readout=pIC50) returns 6.84

Short answer for CC(NC(=O)C(NC(=O)CNC(=O)OC(C)(C)C)C(C)C)C(=O)Oc1c(Cl)c(Cl)c(Cl)c(Cl)c1Cl (stereo unspecified) : pIC50 was 4.53

Record summary for CC(=O)NC(CCCCNC(=O)N(CCCl)N=O)C(=O)NCc1ccccc1 (stereo unspecified) : reported pIC50 = 3.88

Value of pIC50 reported for the compound Clc1cc2nsnc2c(Cl)n1 is 5.56

# compound COC(=O)/C=C\C(C#N)(C#N)N=Cc1ccc(Br)s1 ; its pIC50 = 5.96

###

- System: CEM cells HIV-1 protection, formazan growth assay
- testSummary: NCI AIDS Antiviral Assay
- conditions: measured here: growth of uninfected CEM cells
pIC50: −log10 of the molar value.
Give measured pIC50 for each item. Keep answers brief.

Record CNNC1=NS(=O)(=O)c2cc(C)c(Cl)cc2S1 . Reported pIC50: < 3.70

Lab note: measured pIC50 of N#Cc1nc2ccccc2nc1N1CCN(c2ccc([N+](=O)[O-])cc2)CC1 was < 3.70

Lab book: pIC50 of O=C(O)c1c(O)ccc(N=Nc2ccc(N=Nc3ccc4c(S(=O)(=O)O)cccc4c3O)c3ccccc23)c1O noted as < 4.00
